B1: EHEE_rd3_0053 (parent)
chain: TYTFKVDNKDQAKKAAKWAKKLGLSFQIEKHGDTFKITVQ

variants of: B1; assay: folding stability dG (cDNA display proteolysis); higher = more stable; conditions: PBS, room temperature
Could you label it Yes if measured folding stability dG is 2 kcal/mol or higher, and No otherwise?

Worked examples, 4 variants total:
>>> print(df.to_string())
   variant_notation  label
0              L22S     No
1              E29T    Yes
2               K5Q    Yes
3              S25E    Yes

Query :: Decide: folding stability dG of "F26W" >= 2 kcal/mol?
Result :: No

Query :: Now consider "Q40K" .
Result :: Yes

Query :: Request: "D10C"
Result :: Yes

Query :: Now this one: "T34Q"
Result :: Yes

Query :: Same for "E29S"
Result :: Yes

Query :: Moving on to "K36F"
Result :: Yes

Query :: Record: "K36G"
Result :: No

Query :: What would you report for "V6F" ?
Result :: Yes

Query :: Further, for "T38R" ?
Result :: No

Query :: Further, for "A12K" ?
Result :: No

Query :: Ok, now "G23K"
Result :: No

Query :: Query "K14M" next
Result :: Yes

Query :: Query "Q40P" next
Result :: No

Query :: "H31P" , same question.
Result :: No
